test: Growth inhibition of human HeLa cells at 25 uM after 72 hrs by MTT assay; format: cell-based; details: read-out: GI
measurementName: inhibition at 72 h, 25 µM
Don't forget the unit after the value.

> print(dat)
                      compound  result
1  O=P(O)(O)CCc1cccc2c1B(O)OC2     26%

For the next question, use this compound.
The recorded inhibition at 72 h, 25 µM for O=C1NC(=O)C(Cc2cccc3c2B(O)OC3)N1 (configuration not stated) is 67.7%

* * *

Some molecules, each annotated with its measured inhibition at 72 h, 25 µM.
test: Growth inhibition of human Jurkat cells at 25 uM after 72 hrs by MTT assay; type: cell-based; conditions: read-out: GI
# unit: % | format: bare number

> print(dat)
                                   molecule  result
1  O=C1NC(=O)C(Cc2cccc3c2B(O)OC3)N1 (configuration not stated)    14.1

Please turn your attention to the following entry.
Memo: O=P(O)(O)CCc1cccc2c1B(O)OC2 , reported inhibition at 72 h, 25 µM: 3
